Assay System: Amine oxidase [flavin-containing] A (Homo sapiens)
Sequence (P21397 whole entry): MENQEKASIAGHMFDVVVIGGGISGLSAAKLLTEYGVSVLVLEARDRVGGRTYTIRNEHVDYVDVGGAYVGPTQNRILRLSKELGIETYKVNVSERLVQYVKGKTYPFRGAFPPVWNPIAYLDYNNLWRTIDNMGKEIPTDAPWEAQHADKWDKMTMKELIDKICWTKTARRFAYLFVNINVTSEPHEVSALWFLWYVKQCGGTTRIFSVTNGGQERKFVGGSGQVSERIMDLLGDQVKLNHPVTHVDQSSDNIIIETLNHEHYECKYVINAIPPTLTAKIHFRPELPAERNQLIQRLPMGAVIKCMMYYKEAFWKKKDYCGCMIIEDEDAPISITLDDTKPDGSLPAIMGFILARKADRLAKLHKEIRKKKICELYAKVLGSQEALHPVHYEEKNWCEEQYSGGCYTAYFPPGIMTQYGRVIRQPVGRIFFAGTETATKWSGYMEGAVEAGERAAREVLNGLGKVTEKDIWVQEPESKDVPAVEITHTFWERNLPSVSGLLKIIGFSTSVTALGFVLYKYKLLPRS
Test Details: Inhibition of human recombinant MAO-A using p-tyramine substrate by fluorometric method
Measured pIC50 of individual entries
Quick note: pIC50 means taking -log10 of the concentration in moles per liter.

[in] Given `O=c1oc2c(O)cc(Br)cc2cc1-c1ccc(O)cc1` , respond with its pIC50.
[out] 4.68

[in] Give a short answer stating reported pIC50 for `O=C(c1ccc(O)cc1)c1cc2cc(Br)cc(O)c2oc1=O` .
[out] 4.72

[in] Using the record for `O=C(c1ccccc1)c1cc2cc(Br)cc(O)c2oc1=O` , state its measured pIC50.
[out] 4.33

###

# IC50 per entry
Assay System: Amine oxidase [flavin-containing] B (Homo sapiens, UniProt P27338)
Sequence (P27338 whole entry): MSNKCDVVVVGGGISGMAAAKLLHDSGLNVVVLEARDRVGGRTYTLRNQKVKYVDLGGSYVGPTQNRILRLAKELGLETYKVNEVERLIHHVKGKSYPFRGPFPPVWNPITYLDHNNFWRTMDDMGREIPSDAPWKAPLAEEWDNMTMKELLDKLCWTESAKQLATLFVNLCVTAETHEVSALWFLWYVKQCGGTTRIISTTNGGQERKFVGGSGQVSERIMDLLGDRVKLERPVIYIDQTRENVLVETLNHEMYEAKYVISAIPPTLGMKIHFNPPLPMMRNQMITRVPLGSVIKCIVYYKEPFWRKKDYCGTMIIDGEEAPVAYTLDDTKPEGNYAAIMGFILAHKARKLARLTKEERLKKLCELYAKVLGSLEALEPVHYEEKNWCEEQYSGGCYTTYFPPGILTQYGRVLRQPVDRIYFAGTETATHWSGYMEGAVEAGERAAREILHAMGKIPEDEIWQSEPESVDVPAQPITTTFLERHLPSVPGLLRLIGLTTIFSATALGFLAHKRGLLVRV
Test Details: Inhibition of human recombinant MAO-B using p-tyramine substrate by fluorometric method
Reply numerically in µM, unit not repeated.

Recorded results for 4 compounds are shown here.
| Structure Notation | Meas Value |
| --- | --- |
| O=c1oc2c(O)cc(Br)cc2cc1-c1ccc(O)cc1 | 16.9 |
| COc1cc(Br)cc2cc(-c3ccccc3)c(=O)oc12 | 0.0835 |
| COc1ccc(-c2cc3cc(Br)cc(OC)c3oc2=O)cc1 | 0.00135 |
| O=c1oc2c(O)cc(Br)cc2cc1-c1ccccc1 | 30.9 |

Okay, now this compound:
[in] Fill: IC50 (Amine oxidase [flavin-containing] B (Homo sapiens, UniProt P27338)) for this compound `O=C(c1ccccc1)c1cc2cc(Br)cc(O)c2oc1=O`
[out] 73.9

###

Organism: Homo sapiens
Test Details: Selectivity index, ratio of IC50 for human recombinant MAO-A to human recombinant MAO-B
List of Ratio IC50 values.
The response must contain the number and no unit.

Solved cases (2 shown):
| Structure Notation | Ratio IC50 |
| --- | --- |
| O=C(c1ccccc1)c1cc2cc(Br)cc(O)c2oc1=O | 0.63 |
| O=c1oc2c(O)cc(Br)cc2cc1-c1ccc(O)cc1 | 1.2 |

[in] Look up and report measured Ratio IC50 for this entry: `O=C(c1ccc(O)cc1)c1cc2cc(Br)cc(O)c2oc1=O`
[out] 0.19

###

Species: Homo sapiens
Test Details: Selectivity index, ratio of IC50 for human recombinant MAO-A to human recombinant MAO-B
Assay Readout: Ratio IC50

Record excerpt, results attached:
| Structure Notation | Ratio IC50 |
| --- | --- |
| O=c1oc2c(O)cc(Br)cc2cc1-c1ccccc1 | > 3.2 |
| COc1ccc(-c2cc3cc(Br)cc(OC)c3oc2=O)cc1 | > 74100 |

Moving on to another compound below.
[in] Identify measured Ratio IC50 associated with `COc1cc(Br)cc2cc(-c3ccccc3)c(=O)oc12`
[out] > 1200

The measurements presented in this section are drawn from ChEMBL document CHEMBL1795239.
